target: EGFR IgG binding to the EGFR antigen; assay: ELISA competitive inhibition of EGFR IgG binding to EGFR antigen; conditions: read-out: IC50 for peptide inhibition of EGFR IgG binding to EGFR antigen; Table 13
A collection of compounds and their measured IC50
OBSERVATION_TYPE: IC50

COMPOUND: CC[C@H](C)[C@@H]1NC(=O)[C@H](CC(C)C)NC(=O)[C@H](Cc2c[nH]cn2)NC(=O)[C@H](C)NC(=O)[C@H](CC(=O)O)NC(=O)[C@H](C)NC(=O)[C@@H](NC(=O)[C@H](CO)NC(=O)[C@@H](N)[C@@H](C)O)CSSC[C@@H](C(=O)N[C@@H](CO)C(=O)O)NC(=O)[C@H](CO)NC(=O)[C@@H]2CCCN2C(=O)[C@H](C)NC1=O [Peptide-2]
OBSERVATION_TYPE: IC50
RESULT: > 0.3 µM
//
COMPOUND: CSCC[C@@H]1NC(=O)[C@H](Cc2c[nH]cn2)NC(=O)[C@H](CO)NC(=O)CNC(=O)[C@H](CC(=O)O)NC(=O)[C@H](Cc2c[nH]cn2)NC(=O)[C@@H](NC(=O)[C@H](CO)NC(=O)[C@@H](NC(=O)[C@@H](N)Cc2c[nH]c3ccccc23)C(C)C)CSSC[C@@H](C(=O)N[C@@H](Cc2ccccc2)C(=O)N[C@@H](Cc2c[nH]cn2)C(=O)O)NC(=O)[C@H]([C@@H](C)O)NC1=O [Peptide-4]
OBSERVATION_TYPE: IC50
RESULT: > 0.3 µM
//
COMPOUND: CSCC[C@@H]1NC(=O)[C@H](CC(C)C)NC(=O)[C@H](CO)NC(=O)[C@H](CCCNC(=N)N)NC(=O)[C@@H](NC(=O)[C@H](Cc2c[nH]c3ccccc23)NC(=O)[C@@H](N)CC(=O)O)CSSC[C@@H](C(=O)N2CCC[C@H]2C(=O)O)NC(=O)[C@H](CC(C)C)NC(=O)[C@H](CC(=O)O)NC(=O)[C@H]([C@@H](C)O)NC(=O)[C@H](Cc2ccc(O)cc2)NC(=O)[C@H](CO)NC1=O [Peptide-1]
OBSERVATION_TYPE: IC50
RESULT: > 0.3 µM
